experiment: soluble on expression in E. coli; label from the status in PepcDB or PDB records

seq_text | soluble on expression in E. coli
MSLASRRTDLIGMIVPDARQPFFGEMAHAVEQAAAERGKMVLVGNSDYVAEREVHYLRAFLGMRVSGLILVSHALNNQAAAEIEAWDARVVLLHERPELIDDVAVVTDDIGGAQLATRHLLEHGYAYVACLGGTAETPSVGDPVSDHVEGWRRAMQEAGIPTEGKLFEAPYNRYDAYQVGLELLAGPNRPPAIFCSTDDQAIGVLRAARELRIDVPGELAVAGFDDVKEAALTDPPLTTIASDRSAMARAAVDLVLDDGLRVAGSRRERLKLFPSRLVVRRSCGCAPQETPGSEGHHHHHH | soluble
SSPSLLEPLLAMGFPVHTALKALAATGRKTAEEALAWLHDHCNDPSLDDPI | soluble

###

assay: soluble on expression in E. coli; label from the status in PepcDB or PDB records
property_label: soluble on expression in E. coli

Consider the worked cases shown below.
seq_text | endpoint_result
MSFKDFSFEFNGEPIHFSITSHPDKDLVHFNSTGRIGQVIEVIQPPEILSSQLSDQQRVEYELKSLLGNPELPGVELFIRRFVIHFAGTNQRKSALFVFGIDLDGIPNECIAAALQALEENH | not soluble
MQSVTPTSQYLKALNEGSHQPDDVQKEAVSRLEIIYQELINSRPPAPRTSGLMARVGKLWGKREDTKHTPVRGLYMWGGVGRGKTWLMDLFYQSLPGERKQRLHFHRFMLRVHEELTALQGQTDPLEIIADRFKAETDVLCFDEFFVSDITDAMLLGGLMKALFTRGITLVATSNIPPDELYRNGLQRARFLPAIDAIKQHCDVMNVDAGVDYRLRTLTQAHLWLSPLNDETRAQMDKLWLALAGVKRENSPTLEINHRPLATMGVENQTLAVSFTTLCVDARSQHDYIALSRLFHTVMLFDVPVMTRLMESEARRFIALVDEFYERHVKLVVSAEVPLYEIYQGERLKFEFQRCLSRLQEMQSEEYLKREHLAGLEHHHHHH | soluble
MSLNIKRFVSWDCVNGIKGVLNENGKFSNNPMGVLNWIKAQTSEIPTILLVRDFHKFYDDPSISRTIKELSSSLRETNNNLILSSHILPSSEELDDLITILNLPLPDLSELTALIKKIAFNTDSDLSEQDLNELAIASSGLSEIKVKQVTAKALAQRGKISEGHHHHHH | not soluble
MSLNTEIEMNELLEKAKKIKCLICDVDGVLSDGLLHIDNHGNELKSFHVQDGMGLKLLMAAGIQVAIITTAQNAVVDHRMEQLGITHYYKGQVDKRSAYQHLKKTLGLNDDEFAYIGDDLPDLPLIQQVGLGVAVSNAVPQVLEFADWRTERTGGRGAVRELCDLILNAQNKAELAITGYLKQEGHHHHHH | soluble
PTIFEERHLKYISQLGKGNFGSVELCRYDPLGDNTGALVAVKQLQHSGPDQQRDFQREIQILKALHSDFIVKYRGVSYGPGRPELRLVMEYLPSGCLRDFLQRHRARLDASRLLLYSSQICKGMEYLGSRRCVHRDLAARNILVESEAHVKIADFGLAKLLPLDKDYYVVREPGQSPIFWYAPESLSDNIFSRQSDVWSFGVVLYELFTYCDKSCSPSAEFLRMMGCERDVPALCRLLELLEEGQRLPAPPACPAEVHELMKLCWAPSPQDRPSFSALGPQLDMLWSGSR | soluble

I am curious: what soluble on expression in E. coli value has been reported for MTTTPYDIIGKEALYDMIDYFYTLVEKDERLNHLFPGDFAETSRKQKQFLTQFLGGPNIYTEEHGHPMLRKRHMDFTITEFERDAWLENMQTAINRAAFPQGVGDYLFERLRLTANHMVNS ? not soluble

Consider next the sequence MMDFSHIVSEDKIKRAIKDGDFQNLPGMGKPLPKMTRHTCRNRCAWAIVFLEHHHHHH in the same way. not soluble
